Papp A→B at 120 min, 5 μM by entry:
System: MDR1
Assay: MDCK-MDR1 permeability assay (BBB penetration potential)
Format: in vitro ADME
Conditions: dog, MDCK-MDR1, pH 7.4, MDCK-MDR1: Papp A-B

- COMPOUND: "Oc1cc(-c2cnn3ccccc23)ccc1-c1ccc(O[C@H]2C[C@@H]3CCC[C@@H](N3)[C@H]2F)nn1 (single isomer, unassigned) [91-ENT2]"
  UNIT_STRING: "nm/s"
  Papp A→B at 120 min, 5 μM: 44
- COMPOUND: "Cn1cnc(-c2ccc(-c3ccc(O[C@@H]4C[C@H]5CCC[C@H](N5)[C@@H]4F)nn3)c(O)c2)cc1=O (single isomer, unassigned) [138-ENT1]"
  UNIT_STRING: "nm/s"
  Papp A→B at 120 min, 5 μM: 11.4
- COMPOUND: "Cn1cc(-c2ccc(-c3ccc(O[C@H]4C[C@@H]5CC[C@@H](N5)[C@H]4F)nn3)c(O)c2)cn1 (single isomer, unassigned) [60-ENT2]"
  UNIT_STRING: "nm/s"
  Papp A→B at 120 min, 5 μM: 81.2
- COMPOUND: "Cn1cc(-c2ccc(-c3ccc(O[C@@H]4C[C@@]5(C)CCC[C@](C)(N5)[C@@H]4F)nn3)c(O)c2)cn1 (single isomer, unassigned) [154-ENT2]"
  UNIT_STRING: "nm/s"
  Papp A→B at 120 min, 5 μM: 69.2
- COMPOUND: "Cc1cnc(-c2ccc(-c3ccc(O[C@H]4C[C@@H]5CCC[C@@H](N5)[C@H]4F)nn3)c(O)c2)cn1 (single isomer, unassigned) [78-ENT2]"
  UNIT_STRING: "nm/s"
  Papp A→B at 120 min, 5 μM: 70.9
- COMPOUND: "Oc1cc(-c2cn[nH]c2)ccc1-c1ccc(O[C@@H]2C[C@H]3COC[C@H](N3)[C@@H]2F)nn1 (single isomer, unassigned) [123-ENT1]"
  UNIT_STRING: "nm/s"
  Papp A→B at 120 min, 5 μM: 62.2
- COMPOUND: "Oc1cc(-c2nnco2)ccc1-c1ccc(O[C@H]2C[C@@H]3CCC[C@@H](N3)[C@H]2F)nn1 (single isomer, unassigned) [117-ENT2]"
  UNIT_STRING: "nm/s"
  Papp A→B at 120 min, 5 μM: 72.2
- COMPOUND: "Oc1cc(-n2ccnn2)ccc1-c1ccc(O[C@@H]2C[C@H]3CCC[C@H](N3)[C@@H]2F)nn1 (single isomer, unassigned) [69-ENT1]"
  UNIT_STRING: "nm/s"
  Papp A→B at 120 min, 5 μM: 92
- COMPOUND: "Cn1cc(-c2ccc(-c3ccc(O[C@@H]4C[C@H]5CCC[C@H](N5)[C@@H]4F)nn3)c(O)c2)cn1 (single isomer, unassigned) [1-ENT1]"
  UNIT_STRING: "nm/s"
  Papp A→B at 120 min, 5 μM: 61.6
- COMPOUND: "Cc1nc(-c2ccc(-c3ccc(O[C@@H]4C[C@H]5CCC[C@H](N5)[C@@H]4F)nn3)c(O)c2)cs1 (single isomer, unassigned) [71-ENT2]"
  UNIT_STRING: "nm/s"
  Papp A→B at 120 min, 5 μM: 57.8
- COMPOUND: "Cn1ccc(-c2ccc(-c3ccc(O[C@@H]4C[C@@]5(C)CCC[C@](C)(N5)[C@@H]4F)nn3)c(O)c2)cc1=O (single isomer, unassigned) [149-ENT2]"
  UNIT_STRING: "nm/s"
  Papp A→B at 120 min, 5 μM: 19.4
- COMPOUND: "Cn1cc(-c2ccc(-c3ccc(O[C@@H]4C[C@@H]5CCC[C@@H](N5)[C@H]4F)nn3)c(O)c2)cn1 (single isomer, unassigned) [121-ENT2]"
  UNIT_STRING: "nm/s"
  Papp A→B at 120 min, 5 μM: 135
